The reported measurements were obtained from the Kinase Knowledgebase extract (Sharma et al. 2016).

- measured-target: EGFR (Human), P00533 [T790M/L858R]
- Sequence (P00533 whole entry T790M/L858R, looked up): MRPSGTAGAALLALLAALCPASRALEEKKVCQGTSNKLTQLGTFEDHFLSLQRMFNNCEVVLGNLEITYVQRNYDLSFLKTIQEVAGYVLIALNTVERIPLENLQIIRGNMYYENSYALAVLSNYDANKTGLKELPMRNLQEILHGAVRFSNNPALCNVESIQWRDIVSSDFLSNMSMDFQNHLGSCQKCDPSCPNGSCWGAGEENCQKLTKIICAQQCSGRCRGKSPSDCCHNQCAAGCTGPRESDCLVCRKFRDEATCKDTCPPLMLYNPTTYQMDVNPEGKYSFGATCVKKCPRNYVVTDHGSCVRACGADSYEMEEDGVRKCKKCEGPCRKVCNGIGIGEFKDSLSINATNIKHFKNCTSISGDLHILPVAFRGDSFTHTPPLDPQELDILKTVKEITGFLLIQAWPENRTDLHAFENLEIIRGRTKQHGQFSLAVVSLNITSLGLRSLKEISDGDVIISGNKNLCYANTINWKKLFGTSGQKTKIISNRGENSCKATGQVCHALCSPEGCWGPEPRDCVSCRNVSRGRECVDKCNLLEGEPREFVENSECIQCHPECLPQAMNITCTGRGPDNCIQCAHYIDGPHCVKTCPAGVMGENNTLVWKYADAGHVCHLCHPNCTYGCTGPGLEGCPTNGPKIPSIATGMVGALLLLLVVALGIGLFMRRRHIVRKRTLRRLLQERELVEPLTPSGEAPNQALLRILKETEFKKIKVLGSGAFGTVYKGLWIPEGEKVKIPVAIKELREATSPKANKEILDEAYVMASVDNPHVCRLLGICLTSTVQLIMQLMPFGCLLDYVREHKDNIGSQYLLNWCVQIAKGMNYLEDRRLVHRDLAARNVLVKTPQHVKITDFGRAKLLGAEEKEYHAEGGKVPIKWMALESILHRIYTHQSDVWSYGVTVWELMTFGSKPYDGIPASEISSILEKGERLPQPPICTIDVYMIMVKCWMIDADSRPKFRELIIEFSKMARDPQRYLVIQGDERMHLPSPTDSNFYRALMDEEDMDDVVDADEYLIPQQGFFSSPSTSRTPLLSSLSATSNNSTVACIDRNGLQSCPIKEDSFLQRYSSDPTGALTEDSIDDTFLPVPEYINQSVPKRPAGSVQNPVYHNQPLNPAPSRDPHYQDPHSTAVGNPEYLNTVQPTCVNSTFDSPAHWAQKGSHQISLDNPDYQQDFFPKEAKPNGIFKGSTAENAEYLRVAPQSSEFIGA
- measurement-conditions: nci-h1975
endpoint: EC50 (µM)

INSERT INTO results (compound, quantitative_readout) VALUES
  ('CC(C)n1nc(N2CC3(COC3)C2)c2cnc(Nc3ccnc(-c4cnn(S(=O)(=O)C5CC5)c4)n3)cc21', 0.421);

A: CC(C)n1nc(N2CCC3(COC3)C2)c2cnc(Nc3ccnc(-c4cnn(S(=O)(=O)C5CC5)c4)n3)cc21
B: CCC(C)n1nc(N2CC[C@@H](O)C2)c2cnc(Nc3ccnc(N4CCC(C)(O)CC4)n3)cc21 (some centres undefined)
Parameter check: reported EC50 is higher for which label, A or B ? // caller expects the label of the chosen entry B

====

- measured-target: EGFR (Human), P00533 [T790M/L858R]
- measurement-conditions: nci-h1975
endpoint: EC50 (nM)

INSERT INTO measurements (molecule, endpoint, unit_label, quantitative_readout) VALUES
  ('COC1CCN(c2nccc(Nc3cc4c(cn3)c(N3CC5(COC5)C3)nn4C(C)C)n2)CC1', 'EC50', 'nM', 388);

P: CC[C@@H](C)n1nc(N2CC(C(C)(C)O)C2)c2cnc(Nc3ccnc(N4CC[C@@H](O)[C@@H](F)C4)n3)cc21
Q: CC(C)n1nc(N2CCOCC2)c2cnc(Nc3ccnc(N4CCC(O)C(C)(C)C4)n3)cc21 (stereo not drawn)
Lowest EC50? choose P or Q // caller expects the label of the chosen entry P
(P: 334 nM, Q: 1410 nM)

====

- measured-target: EGFR (Human), P00533 [T790M/L858R]
- measurement-conditions: nci-h1975
endpoint: EC50 (µM)

Worked cases, answers included:
INSERT INTO results (compound, unit_label, quantitative_readout) VALUES
  ('CC(C)n1nc(C2CCOC2)c2cnc(Nc3ccnc(-c4cnn(S(=O)(=O)C5CC5)c4)n3)cc21 (configuration not stated)', 'µM', 1.47),
  ('CCC(C)n1nc(N2CC[C@@H](C(N)=O)C2)c2cnc(Nc3ccnc(N4CCC(C)(O)CC4)n3)cc21 (some centres not stated)', 'µM', 7.17),
  ('CC(C)n1nc(N2CC(O)C(F)(F)C2)c2cnc(Nc3ccnc(N4CCC(C)(O)CC4)n3)cc21 (configuration not stated)', 'µM', 1.33),
  ('CC(C)n1nc(N2CC3(COC3)C2)c2cnc(Nc3ccnc(-c4cnn(CC5CC5)c4)n3)cc21', 'µM', 0.732),
  ('CC(C)c1nn(C(C)C)c2cc(Nc3ccnc(-c4cnn(S(=O)(=O)C5CC5)c4)n3)ncc12', 'µM', 3.7),
  ('CC(C)n1nc(N2CC(C(C)(C)O)C2)c2cnc(Nc3ccnc(-c4cnn(S(=O)(=O)C5CC5)c4)n3)cc21', 'µM', 0.423);

A: CC(C)n1nc(N2CC(N3CCOCC3)C2)c2cnc(Nc3ccnc(-c4cnn(S(=O)(=O)C5CC5)c4)n3)cc21
B: CC(C)n1nc(N2CCOCC2)c2cnc(Nc3ccnc(NCC(C)(C)S(C)(=O)=O)n3)cc21
C: CC[C@@H](C)n1nc(N2CC3(COC3)C2)c2cnc(Nc3ccnc(N4CC[C@@H](O)[C@@H](F)C4)n3)cc21
D: CC(C)n1nc(N2CC(CO)C2)c2cnc(Nc3ccnc(-c4cnn(S(=O)(=O)C5CC5)c4)n3)cc21
E: CC[C@H](C)n1nc(N2CC3(COC3)C2)c2cnc(Nc3ccnc(OCC(C)(C)S(C)(=O)=O)n3)cc21
Ordering criterion: EC50; begin with the maximum. To answer, arrange all of the labels according to the requested order. B, E, A, D, C

====

- measured-target: EGFR (Human), P00533 [T790M/L858R]
- measurement-conditions: nci-h1975
pEC50: −log10 of the molar value.
endpoint: pEC50

Worked cases, answers included:
INSERT INTO measurements (compound, endpoint, quantitative_readout) VALUES
  ('CC[C@@H](C)n1nc(N2CC[C@@H](O)C2)c2cnc(Nc3ccnc(N4CCC5(CC4)CNC(=O)CO5)n3)cc21', 'pEC50', 5.04),
  ('CCC(C)n1nc(N2CC[C@H](C(N)=O)C2)c2cnc(Nc3ccnc(N4CCC(C)(O)CC4)n3)cc21 (some centres not stated)', 'pEC50', 5.66),
  ('CC(n1nc(N2CC3(COC3)C2)c2cnc(Nc3ccnc(N4CCC(C)(O)CC4)n3)cc21)C(F)(F)F (configuration not stated)', 'pEC50', 5.48),
  ('CCC(C)n1nc(N2CCCC2=O)c2cnc(Nc3ccnc(N4CC[C@@H](O)[C@@H](F)C4)n3)cc21 (some centres not stated)', 'pEC50', 6.52),
  ('CC(n1nc(N2CC3(COC3)C2)c2cnc(Nc3ccnc(-c4cnn(S(=O)(=O)C5CC5)c4)n3)cc21)C(F)(F)F (configuration not stated)', 'pEC50', 6.16);

A: CCC(C)n1nc(N2CCN(C(=O)[C@@H](C)O)CC2)c2cnc(Nc3ccnc(-c4cnn(S(=O)(=O)C5CC5)c4)n3)cc21 (some centres not stated)
B: CC(C)n1nc(N2CCCC2)c2cnc(Nc3ccnc(N4CCC(O)C(C)(C)C4)n3)cc21 (configuration not stated)
Parameter check: reported pEC50 is higher for which label, A or B ? // caller expects the label of the chosen entry B
(B: 6.30, A: 5.96)

====

- measured-target: EGFR (Human), P00533 [T790M/L858R]
- measurement-conditions: nci-h1975
endpoint: EC50 (nM)

Worked cases, answers included:
INSERT INTO results (molecule, quantitative_readout) VALUES
  ('CC(C)n1nc(N2CCOC2=O)c2cnc(Nc3ccnc(-c4cnn(S(=O)(=O)C5CC5)c4)n3)cc21', 206),
  ('CCC(C)n1nc(N2CCNC2=O)c2cnc(Nc3ccnc(-c4cnn(S(=O)(=O)C5CC5)c4)n3)cc21 (stereo not drawn)', 138),
  ('CC(C)n1ncc2cnc(Nc3ccnc(-c4cnn(CC5CC5)c4)n3)cc21', 498);

P: CCS(=O)(=O)n1cc(-c2nccc(Nc3cc4c(cn3)c(N3CC(CO)C3)nn4C(C)C)n2)cn1
Q: CC(C)n1nc(NC(=O)C(C)(C)O)c2cnc(Nc3ccnc(-c4cnn(S(=O)(=O)C5CC5)c4)n3)cc21
R: CC(C)n1nc(N2CCC(C(=O)N(C)C)C2)c2cnc(Nc3ccnc(-c4cnn(S(=O)(=O)C5CC5)c4)n3)cc21 (stereo not drawn)
S: CC(C)n1nc(N2CC(C(N)=O)C2)c2cnc(Nc3ccnc(-c4cnn(S(=O)(=O)C5CC5)c4)n3)cc21
T: CC(C)n1nc(N2CCC(C(N)=O)C2)c2cnc(Nc3ccnc(-c4cnn(S(=O)(=O)C5CC5)c4)n3)cc21 (stereo not drawn)
Ordering criterion: EC50; begin with the maximum. To answer, arrange all of the labels according to the requested order. Q, S, T, P, R
(Q: 2080 nM, S: 938 nM, T: 608 nM, P: 397 nM, R: 163 nM)

I: CC(C)n1nc(N2CCOCC2)c2cnc(Nc3ccnc(-c4cnn(CC5CC5)c4)n3)cc21
II: CC(C)n1nc(N2CC(C#N)C2)c2cnc(Nc3ccnc(-c4cnn(S(=O)(=O)C5CC5)c4)n3)cc21
Lowest EC50? choose I or II // caller expects the label of the chosen entry II

1: CCC(C)n1nc(N2CCNC(=O)C2)c2cnc(Nc3ccnc(N4CCC(C)(O)CC4)n3)cc21 (stereo not drawn)
2: CC(C)n1nc(N2CC[C@@H](O)C2)c2cnc(Nc3ccnc(-c4cnn(S(=O)(=O)C5CC5)c4)n3)cc21
3: CC(C)n1nc(N2CCC(C)(C(N)=O)C2)c2cnc(Nc3ccnc(N4CCC(C)(O)CC4)n3)cc21 (stereo not drawn)
Ordering criterion: EC50; begin with the maximum. To answer, arrange all of the labels according to the requested order. 3, 1, 2

A: CC(C)n1nc(N2CCCC2)c2cnc(Nc3ccnc(-c4cnn(CC5CC5)c4)n3)cc21
B: CC(C)n1nc(N2CC3(COC3)C2)c2cnc(Nc3ccnc(N4CCC(O)C(C)(C)C4)n3)cc21 (stereo not drawn)
Parameter check: reported EC50 is higher for which label, A or B ? // caller expects the label of the chosen entry A

I: CC[C@H](C)n1nc(N2CC3(COC3)C2)c2cnc(Nc3ccnc(N4CC[C@@H](O)[C@@H](F)C4)n3)cc21
II: CC(C)n1nc(N2CC(CC#N)C2)c2cnc(Nc3ccnc(-c4cnn(S(=O)(=O)C5CC5)c4)n3)cc21
Lowest EC50? choose I or II // caller expects the label of the chosen entry II
(II: 184 nM, I: 348 nM)

====

- measured-target: EGFR (Human), P00533 [T790M/L858R]
- measurement-conditions: nci-h1975
pEC50: −log10 of the molar value.
endpoint: pEC50

Worked cases, answers included:
INSERT INTO results (compound, result) VALUES
  ('CC(C)n1nc(N2CC(C(=O)N(C)C)C2)c2cnc(Nc3ccnc(N4CCC(O)C(C)(C)C4)n3)cc21 (stereo unspecified)', 6.46),
  ('CC(C)n1nc(F)c2cnc(Nc3ccnc(-c4cnn(S(=O)(=O)C5CC5)c4)n3)cc21', '< 5.00'),
  ('CC(C)n1nc(N2CC(C(=O)NC3CC(O)C3)C2)c2cnc(Nc3ccnc(-c4cnn(S(=O)(=O)C5CC5)c4)n3)cc21 (stereo unspecified)', '< 5.00'),
  ('CC(C)n1nc(NCCC2OCC(N)CO2)c2cnc(Nc3ccnc(N4CCC(C)(O)CC4)n3)cc21 (stereo unspecified)', '< 5.00'),
  ('COC1CCN(c2nccc(Nc3cc4c(cn3)c(N)nn4C[C@H]3CC[C@H](N)CC3)n2)CC1', '< 5.00');

Kindly consider the entry below.
According to the records, this compound CC(C)n1nc(N2CC(C(C)(C)C(N)=O)C2)c2cnc(Nc3ccnc(N4CCC(C)(O)CC4)n3)cc21 displays pEC50 of < 5.00
